These measurements were taken from ChEMBL document CHEMBL1201862.

- Test system: HOP-92
- protocol: NCI tumour cell line growth inhibition, 48 h
The source made the active and inactive calls. Cut-off read from the data, not from the text of the source: active = GI50 up to about 1.1 µM and inactive = higher.
Quick reference for GI50 among some compounds

Solved cases (3 shown):
INSERT INTO assay_data (compound, measured) VALUES
  ('O=C(O)CN1CCN2CCOCCN(CC1)CCN(CC(=O)O)CC2', '> 100 µM (inactive)'),
  ('CCOC(=O)CCC(NC(=O)OCc1ccccc1)C(=O)NNC(=O)OC(C)(C)C (stereo not drawn)', '> 100 µM (inactive)'),
  ('Clc1ccccc1C1N2CCCCC2[C@@H]2c3[nH]c4ccccc4c3CCN12 (stereo partly drawn)', '41.7 µM (inactive)');

# value of GI50, HOP-92, item Brc1cc(CCOC2CCCCO2)c(-c2sccc2CCOC2CCCCO2)s1 (stereo not drawn) = > 65.2 µM (inactive)
